Biological target: UniProt P15538
Experiment: Inhibition of hCYP11B1 in transfected V79 cells
Conditions: hamster V79 cells expressing human CYP11B1; substrate 11-deoxycortisol 200 nM
Threshold 70 nM. IC50 below it: label 1. IC50 at it or above: label 0.

Record excerpt, results attached:
Given N#Cc1ccc(-c2cncc3c2SCCN3C(=O)c2cccnc2)cc1 , is recorded IC50 strictly lower than 70 nM?
label 0

Given N#Cc1ccc(-c2cncc3c2SCCN3C(=O)c2cccc(C#N)c2)cc1 , is recorded IC50 strictly lower than 70 nM?
label 0

Given Cn1ncc2ccc(-c3cncc4c3ccn4C(=O)c3ccc(F)cc3)cc21 , is recorded IC50 strictly lower than 70 nM?
label 0

Given N#Cc1ccc(-c2cncc3c2CCN3C(=O)c2ccccc2)cc1 , is recorded IC50 strictly lower than 70 nM?
label 0

Given COc1ccc(S(=O)(=O)N2CCSc3c(-c4ccc(C(F)(F)F)cc4)cncc32)cc1 , is recorded IC50 strictly lower than 70 nM?
label 0

Given N#Cc1ccc(-c2cncc3c2ccn3S(=O)(=O)c2cccc(C(F)(F)F)c2)cc1 , is recorded IC50 strictly lower than 70 nM?
label 1

Given N#Cc1ccc(-c2cncc3c2ccn3S(=O)(=O)c2cccc3ccccc23)cc1 , is recorded IC50 strictly lower than 70 nM?
label 1

New cases:
Given COc1cccc(CC(=O)N2CCc3c(-c4ccc(C#N)cc4)cncc32)c1 , is recorded IC50 strictly lower than 70 nM?
label 1

* * *

Biological target: human CYP11B1 (Homo sapiens, UniProt P15538)
Construct: expressed in transfected cells
Experiment: Inhibition of hCYP11B1 in transfected V79 cells
Format: cell-based
Settings: hamster V79 cells expressing human CYP11B1; substrate 11-deoxycortisol 200 nM
Catalogue of IC50 values
Return type: number; implicit unit nM.

Examples from the recorded data:
Case N#Cc1ccc(-c2cncc3c2OCCN3C(=O)CBr)cc1 , human CYP11B1 (Homo sapiens, UniProt P15538), IC50 recorded as 546

Case N#Cc1ccc2oc(-c3cncc4c3OCCN4C(=O)C3CN(Cc4cccc(F)c4)C3)cc2c1 , human CYP11B1 (Homo sapiens, UniProt P15538), IC50 recorded as 1340

Case N#Cc1ccc(S(=O)(=O)N2CCOc3c(-c4cc5cc(Cl)ccc5o4)cncc32)cc1 , human CYP11B1 (Homo sapiens, UniProt P15538), IC50 recorded as 256

// switching to the query molecule
Case N#Cc1ccc(-c2cncc3c2OCCN3S(=O)(=O)c2ccccc2)cc1 , human CYP11B1 (Homo sapiens, UniProt P15538), IC50 recorded as 0.22

* * *

Target: human CYP11B1 (Homo sapiens, UniProt P15538)
Sequence (P15538 25-503): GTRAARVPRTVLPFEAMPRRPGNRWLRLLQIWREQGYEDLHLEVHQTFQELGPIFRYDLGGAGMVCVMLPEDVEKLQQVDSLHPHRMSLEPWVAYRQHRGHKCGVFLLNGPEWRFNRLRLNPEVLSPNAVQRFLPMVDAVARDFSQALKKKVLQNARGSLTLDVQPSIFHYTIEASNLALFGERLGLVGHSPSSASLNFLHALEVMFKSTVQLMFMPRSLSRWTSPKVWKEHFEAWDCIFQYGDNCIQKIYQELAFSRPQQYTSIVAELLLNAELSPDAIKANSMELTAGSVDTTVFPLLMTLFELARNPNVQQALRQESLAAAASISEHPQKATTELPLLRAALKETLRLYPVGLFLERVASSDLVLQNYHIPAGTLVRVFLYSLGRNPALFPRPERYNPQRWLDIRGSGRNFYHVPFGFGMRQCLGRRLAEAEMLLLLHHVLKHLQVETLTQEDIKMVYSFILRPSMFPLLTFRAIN
Assay: Inhibition of hCYP11B1 in transfected V79 cells
Conditions: hamster V79 cells expressing human CYP11B1; substrate 11-deoxycortisol 200 nM
Catalogue of log10(IC50) values
Hello, just confirming the data are log10 of IC50 with units of nM.

Examples from the recorded data:
Quick note, log10(IC50) for CC(C)(C)C(=O)N1CCc2c(-c3ccc(C#N)cc3)cncc21 landed at 3.20

Quick note, log10(IC50) for N#Cc1ccc(-c2cncc3c2OCCN3C(=O)C2CN(Cc3ccc(F)cc3)C2)cc1 landed at 2.14

Quick note, log10(IC50) for CN1CCN(C(=O)c2ccc(F)cc2)c2cncc(-c3ccc(C#N)cc3)c21 landed at 1.68

Quick note, log10(IC50) for N#Cc1ccc(-c2cncc3c2OCCN3S(=O)(=O)c2cccc3ccccc23)cc1 landed at 0.81

Quick note, log10(IC50) for N#Cc1ccc(-c2cncc3c2OCCN3C(=O)Cc2cccc(C(F)(F)F)c2)cc1 landed at 2.38

Quick note, log10(IC50) for COc1ccc(C(=O)N2CCc3c(-c4cc5cc(C#N)ccc5o4)cncc32)cc1 landed at 3.47

Quick note, log10(IC50) for Cc1ccc(CC(=O)N2CCOc3c(-c4ccc(C#N)cc4)cncc32)cc1 landed at 1.83

Quick note, log10(IC50) for N#Cc1ccc(-c2cncc3c2ccn3S(=O)(=O)c2cccc(C#N)c2)cc1 landed at -0.52

New cases:
Quick note, log10(IC50) for N#Cc1ccc(-c2cncc3c2CCN3C(=O)Cc2ccccc2Br)cc1 landed at 2.47
